These measurements were taken from patent US20230024096A1.

- tested.system: SMARCA2 (Homo sapiens, UniProt P51531)
- Construct: endogenous in cells; host or cells: HT1080 (CRISPR HiBiT knock-in clone, generated in house)
- Sequence (P51531 whole entry): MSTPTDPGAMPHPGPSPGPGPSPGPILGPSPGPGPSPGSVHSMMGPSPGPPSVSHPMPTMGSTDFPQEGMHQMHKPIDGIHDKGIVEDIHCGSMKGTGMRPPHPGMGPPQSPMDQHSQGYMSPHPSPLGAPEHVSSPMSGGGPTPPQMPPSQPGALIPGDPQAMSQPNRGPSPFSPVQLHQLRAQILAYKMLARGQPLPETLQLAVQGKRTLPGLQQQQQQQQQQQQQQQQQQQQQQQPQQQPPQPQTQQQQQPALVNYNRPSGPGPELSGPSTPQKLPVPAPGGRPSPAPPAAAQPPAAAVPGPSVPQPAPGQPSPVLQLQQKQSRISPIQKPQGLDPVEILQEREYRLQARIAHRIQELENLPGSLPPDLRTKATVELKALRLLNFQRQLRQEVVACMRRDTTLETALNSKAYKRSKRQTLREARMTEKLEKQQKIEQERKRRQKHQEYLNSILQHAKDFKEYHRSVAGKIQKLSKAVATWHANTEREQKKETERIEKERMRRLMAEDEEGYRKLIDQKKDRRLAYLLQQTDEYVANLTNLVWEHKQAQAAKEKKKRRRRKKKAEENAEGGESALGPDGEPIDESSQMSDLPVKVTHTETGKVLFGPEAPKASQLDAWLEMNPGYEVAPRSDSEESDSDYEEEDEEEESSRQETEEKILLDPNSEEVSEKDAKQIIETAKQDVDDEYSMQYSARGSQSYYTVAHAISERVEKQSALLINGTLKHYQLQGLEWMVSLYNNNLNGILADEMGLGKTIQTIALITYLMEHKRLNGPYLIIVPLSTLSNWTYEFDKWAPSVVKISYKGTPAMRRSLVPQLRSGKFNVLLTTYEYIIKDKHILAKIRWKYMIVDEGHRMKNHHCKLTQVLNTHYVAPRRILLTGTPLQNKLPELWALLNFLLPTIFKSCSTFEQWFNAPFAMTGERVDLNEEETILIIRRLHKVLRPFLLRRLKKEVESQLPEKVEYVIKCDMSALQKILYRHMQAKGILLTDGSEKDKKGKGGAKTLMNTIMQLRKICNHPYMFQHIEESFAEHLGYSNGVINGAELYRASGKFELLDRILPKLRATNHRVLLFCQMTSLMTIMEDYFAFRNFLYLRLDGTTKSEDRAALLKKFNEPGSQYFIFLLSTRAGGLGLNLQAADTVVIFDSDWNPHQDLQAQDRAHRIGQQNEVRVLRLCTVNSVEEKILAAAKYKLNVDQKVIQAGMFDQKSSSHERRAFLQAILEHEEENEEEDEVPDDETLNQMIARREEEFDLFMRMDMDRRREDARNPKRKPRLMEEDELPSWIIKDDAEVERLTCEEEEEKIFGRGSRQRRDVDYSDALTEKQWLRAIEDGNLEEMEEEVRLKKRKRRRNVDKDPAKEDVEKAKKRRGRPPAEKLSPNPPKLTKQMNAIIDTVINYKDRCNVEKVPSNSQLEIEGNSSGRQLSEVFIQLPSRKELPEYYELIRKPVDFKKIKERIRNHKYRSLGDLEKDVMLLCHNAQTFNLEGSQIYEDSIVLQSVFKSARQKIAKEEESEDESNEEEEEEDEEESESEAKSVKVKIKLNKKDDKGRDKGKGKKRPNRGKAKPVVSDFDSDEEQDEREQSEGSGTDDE
- test.protocol: SMARCA2 HiBiT degradation assay (cellular)
- Assay type: cell-based
- settings: 6 h incubation; HiBiT-tagged SMARCA2, luminescence read-out; table head names A549; read-out: HiBit A549 SMARCA2 IP (nM) 6 h
Mark Met for DC50 under 500 nM, Not met if at or over.

compound: Nc1nnc(-c2ccccc2O)cc1N1CC2CCC(C1)N2c1cccc(OCCN2CCN(C(=O)CN3CCC(c4ccc(OC5CCC(=O)NC5=O)cn4)CC3)CC2)c1 (centres unmarked)
assigned.class: Met
//
compound: Nc1nnc(-c2ccccc2O)cc1OC1CCCN(c2ccc(N3CCN(C(=O)CCCCCCCCN4CCN(c5ccc6c(c5)C(=O)N(C5CCC(=O)NC5=O)C6=O)CC4)CC3)cc2)C1 (centres unmarked)
assigned.class: Met
//
compound: Nc1nnc(-c2ccccc2O)cc1N1CC2CCC(C1)N2c1cccc(OCCN2CCN(C(=O)CNC(=O)C3CCN(c4cccc5c4C(=O)N(C4CCC(=O)NC4=O)C5=O)CC3)CC2)c1 (racemic)
assigned.class: Met
//
compound: Nc1nnc(-c2ccccc2O)cc1OC1CCCN(c2ccc(N3CCN(C(=O)CCCCCCCC(=O)N4CC[C@H](Nc5cccc6c5C(=O)N(C5CCC(=O)NC5=O)C6=O)C4)CC3)cc2)C1 (mixture of isomers)
assigned.class: Not met

---

- tested.system: SMARCA2 (Homo sapiens, UniProt P51531)
- Construct: endogenous in cells; host or cells: HT1080 (CRISPR HiBiT knock-in clone, generated in house)
- test.protocol: SMARCA2 HiBiT degradation assay (cellular)
- Assay type: cell-based
- settings: 6 h incubation; HiBiT-tagged SMARCA2, luminescence read-out; table head names A549; read-out: HiBit A549 SMARCA2 IP (nM) 6 h
Mark 1 for DC50 under 200 nM, -1 if at or over.

compound: Nc1nnc(-c2ccccc2O)cc1N1CC(Oc2ccc(C(=O)N3CCN(C(=O)C4CCN(c5ccc6c(c5)C(=O)N(C5CCC(=O)NC5=O)C6=O)CC4)CC3)c(C(F)(F)F)c2)C1 (racemic)
assigned.class: 1
//
compound: Nc1nnc(-c2ccccc2O)cc1N1CC2CCC(C1)N2c1cccc(OCCN2CCN(C(=O)CCC(=O)N3CCC(Oc4cccc5c4C(=O)N(C4CCC(=O)NC4=O)C5=O)CC3)CC2)c1 (racemic)
assigned.class: -1
//
compound: Nc1nnc(-c2ccccc2O)cc1OC1CCCN(c2ccc(OCCN3CCN(C(=O)CCCCCCCCCCCn4cc(CNc5cccc6c5C(=O)N(C5CCC(=O)NC5=O)C6=O)nn4)CC3)cc2)C1 (centres unmarked)
assigned.class: 1
//
compound: Nc1nnc(-c2ccccc2O)cc1N1CCN(c2ccccc2)C(C(=O)NCC2CCN(C(=O)C3CCN(c4ccc5c(c4)C(=O)N(C4CCC(=O)NC4=O)C5=O)CC3)CC2)C1 (centres unmarked)
assigned.class: 1
//
compound: Nc1nnc(-c2ccccc2O)cc1N1CC2CCC(C1)N2c1cccc(OCCN2CCN(C(=O)N3CCC(c4ccc(NC5CCC(=O)NC5=O)cc4)CC3)CC2)c1 (racemic)
assigned.class: 1

---

- tested.system: SMARCA2 (Homo sapiens, UniProt P51531)
- Construct: endogenous in cells; host or cells: HT1080 (CRISPR HiBiT knock-in clone, generated in house)
- test.protocol: SMARCA2 HiBiT degradation assay (cellular)
- Assay type: cell-based
- settings: 6 h incubation; HiBiT-tagged SMARCA2, luminescence read-out; table head names A549; read-out: HiBit A549 SMARCA2 IP (nM) 6 h
experimental.endpoint: DC50 (nM)

compound: Nc1nnc(-c2ccccc2O)cc1N1CC2CCC(C1)N2c1cccc(CN2CCN(C(=O)CC3CCN(c4ccc5c(c4)C(=O)N(C4CCC(=O)NC4=O)C5=O)CC3)CC2)c1 (racemic)
measurement.units: nM
measured.number: 15
//
compound: Nc1nnc(-c2ccccc2O)cc1N1CC2CCC(C1)N2c1cccc(CN2CCN(CCOC3CCN(c4ccc5c(c4)C(=O)N(C4CCC(=O)NC4=O)C5=O)CC3)CC2)c1 (racemic)
measurement.units: nM
measured.number: 19
//
compound: Nc1nnc(-c2ccccc2O)cc1OC1CCCN(c2ccc(N3CCN(CCCCCCCCCn4cc(COc5cccc6c5C(=O)N(C5CCC(=O)NC5=O)C6=O)nn4)CC3)cc2)C1 (stereo not drawn)
measurement.units: nM
measured.number: 115

---

- tested.system: SMARCA2 (Homo sapiens)
- Construct: endogenous in cells; host or cells: HT1080 (CRISPR HiBiT knock-in clone, generated in house)
- test.protocol: SMARCA2 HiBiT degradation assay (cellular)
- Assay type: cell-based
- settings: 6 h incubation; HiBiT-tagged SMARCA2, luminescence read-out; table head names A549; read-out: HiBit A549 SMARCA2 IP (nM) 6 h
// values below are reported DC50

molecule: Nc1nnc(-c2ccccc2O)cc1N1CC2CCC(C1)N2c1cccc(CN2CCN(C(=O)CCC3CCN(c4ccc5c(c4)C(=O)N(C4CCC(=O)NC4=O)C5=O)CC3)CC2)n1 (racemic) [Example 133]
tested.system: SMARCA2 (Homo sapiens)
DC50, nM: 64
//
molecule: Nc1nnc(-c2ccccc2O)cc1N1CCC(NC(=O)CC2CCN(C(=O)CCCN3CCC(c4ccc(NC5CCC(=O)NC5=O)cc4)CC3)CC2)(c2ccccc2)CC1 (stereo not drawn) [Example 185]
tested.system: SMARCA2 (Homo sapiens)
DC50, nM: 241
//
molecule: Nc1nnc(-c2ccccc2O)cc1N1CC2CCC(C1)N2c1cccc(CN2CCC(C(=O)N3CCC(c4ccc(NC5CCC(=O)NC5=O)cc4)CC3)CC2)c1 (racemic) [Example 93]
tested.system: SMARCA2 (Homo sapiens)
DC50, nM: 9

---

- tested.system: SMARCA2 (Homo sapiens)
- Construct: endogenous in cells; host or cells: HT1080 (CRISPR HiBiT knock-in clone, generated in house)
- test.protocol: SMARCA2 HiBiT degradation assay (cellular)
- Type: cell-based
- settings: A549, 6 h incubation; Emax = amount of residual protein remaining in the cell following compound treatment; table head names A549
Mark 1 (yes) for Emax under 50%, 0 (no) if at or over.

compound: Nc1nnc(-c2ccccc2O)cc1OC1CCCN(c2ccc(N3CCN(CCCCCCCCCn4cc(CNc5cccc6c5C(=O)N(C5CCC(=O)NC5=O)C6=O)nn4)CC3)cc2)C1 (stereo not drawn)
assigned.class: 1 (yes)
//
compound: Nc1nnc(-c2ccccc2O)cc1N1CCC(NC(=O)CCN2CCC(c3ccc(OC4CCC(=O)NC4=O)cc3)CC2)(c2ccccc2)CC1 (stereo not drawn) [Example 115, diformate]
assigned.class: 0 (no)
//
compound: Nc1nnc(-c2ccccc2O)cc1N1CCC(CNC(=O)COc2cccc3c2C(=O)N(C2CCC(=O)NC2=O)C3=O)(c2ccccc2)CC1 (stereo not drawn)
assigned.class: 0 (no)
//
compound: Nc1nnc(-c2ccccc2O)cc1OC1CCCN(c2ccc(N3CCN(C(=O)CCCCCCCCCCCCCCn4cc(CNc5cccc6c5C(=O)N(C5CCC(=O)NC5=O)C6=O)nn4)CC3)cc2)C1 (stereo not drawn)
assigned.class: 0 (no)
//
compound: Nc1nnc(-c2ccccc2O)cc1OC1CCCN(c2ccc(N3CCN(CCCCCCCCCn4cc(COc5cccc6c5C(=O)N(C5CCC(=O)NC5=O)C6=O)nn4)CC3)cc2)C1 (stereo not drawn)
assigned.class: 1 (yes)

---

- tested.system: SMARCA2 (Homo sapiens, UniProt P51531)
- Construct: endogenous in cells; host or cells: HT1080 (CRISPR HiBiT knock-in clone, generated in house)
- test.protocol: SMARCA2 HiBiT degradation assay (cellular)
- Assay type: cell-based
- settings: 6 h incubation; HiBiT-tagged SMARCA2, luminescence read-out; table head names A549; read-out: HiBit A549 SMARCA2 IP (nM) 6 h
experimental.endpoint: log10(DC50) (log10 of the value in nM)

compound: Nc1nnc(-c2ccccc2O)cc1N1CC2CCC(C1)N2c1cccc(OCCN2CCN(C(=O)CCCCCCCCNc3cccc4c3C(=O)N(C3CCC(=O)NC3=O)C4=O)CC2)c1 (stereo not shown)
tested.system: SMARCA2 (Homo sapiens, UniProt P51531)
log10(DC50): 2.52
//
compound: Nc1nnc(-c2ccccc2O)cc1N1CC2CCC(C1)N2c1cccc(CN2CCN(C(=O)CN3CCN(c4ccc(OC5CCC(=O)NC5=O)cc4)CC3)CC2)c1 (racemic)
tested.system: SMARCA2 (Homo sapiens, UniProt P51531)
log10(DC50): 1.86
//
compound: Nc1nnc(-c2ccccc2O)cc1N1CCC(C(=O)N2CCC3(CC2)CN(C(=O)COc2ccc4c(c2)C(=O)N(C2CCC(=O)NC2=O)C4=O)CCO3)(c2ccccc2)CC1 (stereo not shown)
tested.system: SMARCA2 (Homo sapiens, UniProt P51531)
log10(DC50): 2.78
//
compound: Nc1nnc(-c2ccccc2O)cc1OC1CCCN(c2ccc(N3CCN(CCCCCCCCCn4cc(CCCNc5cccc6c5C(=O)N(C5CCC(=O)NC5=O)C6=O)nn4)CC3)cc2)C1 (stereo not shown)
tested.system: SMARCA2 (Homo sapiens, UniProt P51531)
log10(DC50): 2.01
//
compound: Nc1nnc(-c2ccccc2O)cc1N1CCC(C(=O)NCC2CCN(C(=O)CN3CCC(c4ccc(OC5CCC(=O)NC5=O)cc4)CC3)CC2)(c2ccccc2)CC1 (stereo not shown)
tested.system: SMARCA2 (Homo sapiens, UniProt P51531)
log10(DC50): 2.01
//
compound: CC(Nc1cccc2c1C(=O)N(C1CCC(=O)NC1=O)C2=O)c1cn(CCCCCCCCCN2CCN(c3ccc(N4CCCC(Oc5cc(-c6ccccc6O)nnc5N)C4)cc3)CC2)nn1 (stereo not shown)
tested.system: SMARCA2 (Homo sapiens, UniProt P51531)
log10(DC50): 1.74
//
compound: Nc1nnc(-c2ccccc2O)cc1N1CC2CCC(C1)N2c1cccc(OCCN2CCN(C(=O)CC3CCN(c4cccc5c4C(=O)N(C4CCC(=O)NC4=O)C5=O)CC3)CC2)c1 (racemic)
tested.system: SMARCA2 (Homo sapiens, UniProt P51531)
log10(DC50): 1.54
//
compound: CC(Oc1cccc2c1C(=O)N(C1CCC(=O)NC1=O)C2=O)c1cn(CCCN2CCN(C(=O)CCN3CCN(c4ccc(N5CCC[C@H](Oc6cc(-c7ccccc7O)nnc6N)C5)cc4)CC3)CC2)nn1 (mixture of isomers)
tested.system: SMARCA2 (Homo sapiens, UniProt P51531)
log10(DC50): 2.02
//
compound: Nc1nnc(-c2ccccc2O)cc1N1CC2CCC(C1)N2c1cccc(OCCN2CCN(C(=O)C3CCN(c4ccc5c(c4)C(=O)N(C4CCC(=O)NC4=O)C5=O)CC3)CC2)c1 (racemic)
tested.system: SMARCA2 (Homo sapiens, UniProt P51531)
log10(DC50): 0.30
//
compound: Nc1nnc(-c2ccccc2O)cc1O[C@H]1CCCN(c2ccc(N3CCN(CCCCC(=O)N4CCC(Cn5cc(COc6cccc7c6C(=O)N(C6CCC(=O)NC6=O)C7=O)nn5)CC4)CC3)cc2)C1 (mixture of isomers)
tested.system: SMARCA2 (Homo sapiens, UniProt P51531)
log10(DC50): 2.58
